Test system: Triticum aestivum
Assay: Phytotoxicity against Triticum aestivum (wheat) under greenhouse conditions at 1.3 g/a at 1.5-leaf stage measured after 3 weeks by pot test
Format: organism-based
Conditions: in vivo, 504 h
value_kind: Activity

>>> df
                                    compound  value_kind  experimental_result
 0  O=C(O)CONC(=O)COc1ccc(Oc2ncc(Cl)cc2Cl)cc1    Activity            Non-toxic
 1  COC(=O)C(C)Oc1ccc(Oc2ncc(Cl)cc2Cl)cc1 (stereo unspecified)    Activity                Toxic
 2  CC(Oc1ccc(Oc2ncc(Cl)cc2Cl)cc1)C(=O)NN (stereo unspecified)    Activity            Non-toxic
 3  CCCCNC(=O)CNC(=O)C(C)Oc1ccc(Oc2ncc(Cl)cc2Cl)cc1 (stereo unspecified)    Activity            Non-toxic
 4  CCNC(=O)CNC(=O)C(C)Oc1ccc(Oc2ncc(Cl)cc2Cl)cc1 (stereo unspecified)    Activity            Non-toxic
 5  CC(Oc1ccc(Oc2ncc(C(F)(F)F)cc2Cl)cc1)C(=O)O (stereo unspecified)    Activity                Toxic
 6  CCOC(=O)CNC(=O)C(C)Oc1ccc(Oc2ncc(Cl)cc2Cl)cc1 (stereo unspecified)    Activity            Non-toxic
 7  COC(=O)CNC(=O)C(C)Oc1ccc(Oc2ncc(Cl)cc2Cl)cc1 (stereo unspecified)    Activity            Non-toxic
 8  CC(Oc1ccc(Oc2ncc(Cl)cc2Cl)cc1)C(=O)NO (stereo unspecified)    Activity            Non-toxic
 9  CC(Oc1ccc(Oc2cnc3cc(Cl)ccc3n2)cc1)C(=O)O (stereo unspecified)    Activity                Toxic
10  CC(Oc1ccc(Oc2ccc(Cl)cc2Cl)cc1)C(=O)O (stereo unspecified)    Activity            Non-toxic
